Target: human JAK2 (Homo sapiens)
Construct: a functional domain (826-1132 amino acids) of human JAK2
Sequence (O60674 826-1132): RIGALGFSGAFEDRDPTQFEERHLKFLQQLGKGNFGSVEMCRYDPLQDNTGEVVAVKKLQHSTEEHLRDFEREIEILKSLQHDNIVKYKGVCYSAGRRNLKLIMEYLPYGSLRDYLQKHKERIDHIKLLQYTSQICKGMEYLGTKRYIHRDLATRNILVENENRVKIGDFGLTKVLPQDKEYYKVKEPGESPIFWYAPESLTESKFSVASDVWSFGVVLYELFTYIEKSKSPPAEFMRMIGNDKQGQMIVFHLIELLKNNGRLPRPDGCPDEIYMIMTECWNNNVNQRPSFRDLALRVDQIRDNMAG
Assay: JAK2 enzyme inhibitory activity (time-resolved fluorescence kinase assay with biotinylated Lyn-substrate peptide)
Assay type: biochemical
Settings: at a concentration of 1 µmol/L; His-tagged JAK2 (826-1132 amino acids), 10 µmol/L ATP, 30°C, 60 minutes
Structures can show the parent of a compound that is named as a salt.
measured.metric: JAK2 inhibition ratio

The measured JAK2 inhibition ratio associated with CN(C)Cc1cc2c(c(-c3cc4cc(CN5CCN(CCO)CC5)ccc4[nH]3)c1)C(=O)NC2 [Compound 483, trihydrochloride] reads ≥ 50%

The measured JAK2 inhibition ratio associated with CCN(CC)Cc1ccc2[nH]c(-c3cc(C(O)C(C)C)cc4c3C(=O)NC4)cc2c1 (stereo not drawn) [Compound 555, hydrochloride] reads ≥ 50%

The measured JAK2 inhibition ratio associated with O=C1NCc2c(-c3ccc(O)cc3)ccc(-c3cc4cc(CN5CCCCC5)ccc4[nH]3)c21 [Compound 305, hydrochloride] reads ≥ 50%

meta.source: patent EP2108642A1
